Values compiled from paper PMC4265395.

# Test system: β-haematin formation
# protocol-notes: Inhibition of β-haematin formation assay (lipid catalyst)
# Type: biochemical
# test-parameters: experiment 2; read-out: Inhibitory concentration of β-haematin formation (IC50), Exp 2
pIC50: −log10 of the molar value.
Entries and their pIC50 values follow.
assay-readout: pIC50

INSERT INTO results (molecule, assay_readout, measured_number) VALUES
  ('CCN(CC)CCCC(C)Nc1ccnc2cc(Cl)ccc12 (stereo not drawn) [Chloroquine, reference compound]', 'pIC50', 2.70),
  ('C#CCNCCCCNc1ccnc2cc(Cl)ccc12', 'pIC50', 2.52),
  ('C#CCN(CC#C)CCNc1ccnc2cc(Cl)ccc12', 'pIC50', 1.99);

----------
# Tested on: CQ-R P. falciparum parasites (W2 clone)
# protocol-notes: anti-HRPII test, P. falciparum CQ-R W2 clone in culture
# Assay type: cell-based, Plasmodium falciparum
# test-parameters: Plasmodium falciparum, W2, read-out: Anti-P. falciparum activity (IC50) W2 (CQ-R)
pIC50: −log10 of the molar value.
assay-readout: pIC50

INSERT INTO results (compound, measured_number) VALUES
  ('CCN(CC)CCCC(C)Nc1ccnc2cc(Cl)ccc12 (stereo not shown) [Chloroquine, reference compound]', 6.42);

----------
# Tested on: HepG2 cells
# Format: cell-based
# test-parameters: human, 24 h
assay-readout: Cytotoxicity MLD50 HepG2 cells

INSERT INTO assay_data (compound, assay_readout, result) VALUES
  ('C#CCNCCCNc1ccnc2cc(Cl)ccc12 [CQAn28]', 'Cytotoxicity MLD50 HepG2 cells', '1508.56 ± 344.50 µM'),
  ('C#CCN(CC#C)CCCCNc1ccnc2cc(Cl)ccc12 [CQAn45]', 'Cytotoxicity MLD50 HepG2 cells', '1015.84 ± 42.97 µM'),
  ('C#CCN(CC#C)CCNc1ccnc2cc(Cl)ccc12 [CQAn37]', 'Cytotoxicity MLD50 HepG2 cells', '1699.24 ± 10.07 µM'),
  ('C#CCNCCCCNc1ccnc2cc(Cl)ccc12 [CQAn33]', 'Cytotoxicity MLD50 HepG2 cells', '152.89 ± 12.86 µM'),
  ('C#CCNCCNc1ccnc2cc(Cl)ccc12 [CQAn34]', 'Cytotoxicity MLD50 HepG2 cells', '943.29 ± 73.15 µM'),
  ('C#CCN(CC#C)CCCNc1ccnc2cc(Cl)ccc12 [CQAn39]', 'Cytotoxicity MLD50 HepG2 cells', '≥3207.08 µM');

----------
# System: P. berghei NK65 blood parasites (CQ-sensitive)
# protocol-notes: Suppressive test in mice, CQ-sensitive P. berghei
# Type: in vivo, P. berghei in Swiss mice
# test-parameters: 25 mg/kg oral, four consecutive days; day 5 after inoculation; vs non-treated mice
# Method: The protocol for animal use was approved by the Ethics Committee for Animal Use (CEUA LW-23/13) of the Oswaldo Cruz Foundation (Fiocruz). Only Swiss adult female mice (20 ± 2 g weight) were used; they were raised at the animal facilities at FIOCRUZ-Minas. The suppressive test was performed as described using the P. berghei NK65 blood parasites, with some modifications. Briefly, the blood parasites were maintained through weekly blood passages in mice. […]
assay-readout: Percentage reduction of parasitaemia, CQ-Sensitive, Day 5 (%)

INSERT INTO measurements (molecule, measured_number) VALUES
  ('C#CCN(CC#C)CCCCNc1ccnc2cc(Cl)ccc12 [CQAn45]', 88),
  ('CCN(CC)CCCC(C)Nc1ccnc2cc(Cl)ccc12 (centres unmarked) [Chloroquine, reference compound]', 100),
  ('C#CCN(CC#C)CCNc1ccnc2cc(Cl)ccc12 [CQAn37]', 100),
  ('C#CCNCCNc1ccnc2cc(Cl)ccc12 [CQAn34]', 99),
  ('C#CCN(CC#C)CCCNc1ccnc2cc(Cl)ccc12 [CQAn39]', 95);

----------
# System: CQ-S P. falciparum parasites (3D7 strain)
# protocol-notes: anti-HRPII test, P. falciparum CQ-S 3D7 strain in culture
# Format: cell-based, Plasmodium falciparum
# test-parameters: MLD50 HepG2 / IC50 3D7
Entries and their SI (MLD50/IC50) 3D7 (CQ-S) values follow.
assay-readout: SI (MLD50/IC50) 3D7 (CQ-S)

INSERT INTO results (chemical_smiles, target_desc, measured_number) VALUES
  ('C#CCN(CC#C)CCNc1ccnc2cc(Cl)ccc12', 'CQ-S P. falciparum parasites (3D7 strain)', 2981),
  ('C#CCNCCNc1ccnc2cc(Cl)ccc12', 'CQ-S P. falciparum parasites (3D7 strain)', 3144),
  ('C#CCNCCCNc1ccnc2cc(Cl)ccc12', 'CQ-S P. falciparum parasites (3D7 strain)', 101),
  ('C#CCN(CC#C)CCCNc1ccnc2cc(Cl)ccc12', 'CQ-S P. falciparum parasites (3D7 strain)', 1342),
  ('C#CCN(CC#C)CCCCNc1ccnc2cc(Cl)ccc12', 'CQ-S P. falciparum parasites (3D7 strain)', 868),
  ('C#CCNCCCCNc1ccnc2cc(Cl)ccc12', 'CQ-S P. falciparum parasites (3D7 strain)', 131);
